assay: Molar enthalpy of transition or fusion; conditions: Crystal; DSC
Kindly supply the reported Molar enthalpy of transition or fusion values for the records listed here.
Answers are plain numbers, in kJ/mol.

# example entries with known answers
INSERT INTO assay_data (compound, test_readout, units, recorded_value) VALUES
  ('CCn1cc[n+](C)c1.F[P-](F)(F)(F)(F)F [1-ethyl-3-methylimidazolium hexafluorophosphate]', 'Molar enthalpy of transition or fusion', 'kJ/mol', 18),
  ('c1ccc(-c2nc(-c3ccccc3)c(-c3ccccc3)[nH]2)cc1', 'Molar enthalpy of transition or fusion', 'kJ/mol', 37.3),
  ('c1ccc(-c2nc[nH]c2-c2ccccc2)cc1', 'Molar enthalpy of transition or fusion', 'kJ/mol', 32.3);

// next item, Molar enthalpy of transition or fusion requested
Lab note: measured Molar enthalpy of transition or fusion of c1ccc(-c2ncc[nH]2)cc1 was 17.8
